Target: human P2X3 receptor (Homo sapiens, UniProt P56373)
Construct: expressed in transfected cells; host or cells: Xenopus oocytes (cRNA injected); cDNA from the Max-Planck Institute laboratory (Dr. W. Stuhmer and Dr. F. Soto)
Sequence (P56373 whole entry): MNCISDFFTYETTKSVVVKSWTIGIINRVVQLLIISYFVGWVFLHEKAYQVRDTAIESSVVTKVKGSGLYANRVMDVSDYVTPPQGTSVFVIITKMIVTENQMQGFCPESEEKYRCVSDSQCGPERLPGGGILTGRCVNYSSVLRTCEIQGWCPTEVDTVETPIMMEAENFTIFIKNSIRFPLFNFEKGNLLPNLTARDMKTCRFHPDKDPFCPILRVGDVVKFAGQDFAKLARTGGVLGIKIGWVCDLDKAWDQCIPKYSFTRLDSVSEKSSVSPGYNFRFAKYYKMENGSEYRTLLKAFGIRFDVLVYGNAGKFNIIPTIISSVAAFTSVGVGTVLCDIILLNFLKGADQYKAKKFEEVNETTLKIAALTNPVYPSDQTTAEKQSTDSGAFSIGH
Experiment: Two-electrode voltage clamp, ATP-induced ion current in Xenopus oocytes expressing human P2X3
Type: cell-based
Conditions: Table 1; 100 nM compound; ion current induced by 2 μM ATP; mean ± SEM, n = 4; read-out: % inhibition hP2X3
PROPERTY_NAME: inhibition at 0.1 µM (%)

Check out these entries, answers already filled in.
>>> print(df.to_string())
                                   molecule                             target_system  value_reported
0  Cc1nc(N=Nc2ccc(S(=O)(=O)O)cc2)c(CCC(=O)O)c(C=O)c1O [Compound 26]  human P2X3 receptor (Homo sapiens, UniProt P56373)            46.5
1  Cc1nc(N=Nc2cc(S(=O)(=O)O)ccc2S(=O)(=O)O)c(CCC(=O)O)c(C=O)c1O [Compound 24]  human P2X3 receptor (Homo sapiens, UniProt P56373)            40.1

A: Cc1nc(N=Nc2ccc(C(=O)O)cc2)c(CCC(=O)O)c(C=O)c1O [Compound 28]
B: Cc1nc(N=Nc2ccc(S(=O)(=O)O)cc2)c(CCC(=O)O)c(C(=O)O)c1O [Compound 27]
Param pair: A , B . Output: the one whose inhibition at 0.1 µM is numerically greater. Answer = label.
A
(A: 56.3%, B: 37.6%)
